# System: giant foxtail (Setaria faberi)
# Assay comment: Test G Post-Emergence Protocol
# Assay type: in vivo
# Condition set: Setaria faberi, post-emergence, 312 h, 250 g ai/ha, evaluated after 13 days, 100=total damage to plant, 0=no damage to plant, read-out: Foxtail, Giant damage rating
Attribute measured: pest or weed control at 250 g/ha (%)
Use % as the unit, but write only the number.

Look over these answered cases.
| Compound | Attribute measured | Reported |
| --- | --- | --- |
| CC1OC(=O)c2c(NC(=O)[C@H]3C(=O)N(C)C[C@@H]3c3ccc(C(F)(F)F)cc3)cccc21 (mixture of isomers) | pest or weed control at 250 g/ha | 80 |
| CN1C[C@H](c2cccc(C(F)(F)F)c2)[C@@H](C(=O)Nc2cnccc2F)C1=O (racemic) | pest or weed control at 250 g/ha | 70 |
| Cc1cc(C2CN(C)C(=O)C2C(=O)Nc2cccc(F)c2F)cc(Cl)c1F (stereo not shown) | pest or weed control at 250 g/ha | 60 |

Request the reported pest or weed control at 250 g/ha associated with COc1cc(F)cc(C2CN(C)C(=O)C2C(=O)Nc2cccc(F)c2F)c1 (stereo not shown)
80

###

# Test system: pigweed (Amaranthus retroflexus)
# Assay comment: Test A preemergence
# Assay type: in vivo
# Condition set: 500 g ai/ha, preemergence; 0 to 100 scale, 0 = no effect, 100 = complete control
Criterion: Plant response rating, Pigweed strictly less than 70. Met: Y. Not met: N.

| Molecule | Class assignment |
| --- | --- |
| CC(C)Oc1cccc(C2CN(C)C(=O)C2C(=O)Nc2ccccc2S(C)(=O)=O)c1 (stereo not shown) [Compound 653] | N |
| O=C1NCC(c2cccc(OC(F)(F)C(F)F)c2)C1C(=O)Nc1ccc(F)cc1F (racemic) [Compound 696] | Y |
| Cc1ccc(C2CNC(=O)C2C(=O)Nc2ccc(F)cc2F)cc1C(F)(F)F (racemic) [Compound 655] | Y |
| Cc1ccc(C2CN(C)C(=O)C2C(=O)Nc2ccc(F)cc2F)cc1 (stereo not shown) [Compound 664] | Y |
| CN1CC(c2ccc(C(C)(F)F)cc2)C(C(=O)Nc2ccccc2S(C)(=O)=O)C1=O (stereo not shown) [Compound 692] | N |

Criterion: Plant response rating, Pigweed strictly below 70. Is it met by O=C1NCC(c2cccc(Br)c2)C1C(=O)Nc1ccc(F)c(F)c1F (racemic) [Compound 689] ?
Y

Criterion: Plant response rating, Pigweed strictly below 70. Is it met by Cc1ccc(C2CN(C)C(=O)C2C(=O)Nc2ccccc2C(F)(F)F)cc1 (stereo not shown) [Compound 665] ?
Y

Criterion: Plant response rating, Pigweed strictly below 70. Is it met by O=C1NCC(c2cccc3ccccc23)C1C(=O)Nc1ccccc1C(F)(F)F (racemic) [Compound 712] ?
Y

Criterion: Plant response rating, Pigweed strictly below 70. Is it met by CN1CC(c2ccc(F)c(F)c2)C(C(=O)Nc2ccccc2S(C)(=O)=O)C1=O (stereo not shown) [Compound 640] ?
N

###

# Test system: sedge, umbrella (small-flower umbrella sedge, Cyperus difformis)
# Assay comment: Test B flooded paddy test
# Type: in vivo
# Condition set: Flood, 250 g ai/ha; 0 to 100 scale where 0 is no effect and 100 is complete control; 13 to 15 d
Attribute measured: Plant response rating, Sedge, Umbrella
Just the number.

Request the reported Plant response rating, Sedge, Umbrella associated with CN1CC(c2cccc(OC(F)(F)C(F)F)c2)C(C(=O)Nc2cccc(F)c2F)C1=O (centres unmarked) [Compound 392]
0

Request the reported Plant response rating, Sedge, Umbrella associated with Cc1ccc(C2CNC(=O)C2C(=O)Nc2ccc(F)cc2F)cc1C(F)(F)F (racemic) [Compound 680]
0

Request the reported Plant response rating, Sedge, Umbrella associated with O=C1NCC(c2cccc(F)c2F)C1C(=O)Nc1cccc(F)c1F (centres unmarked) [Compound 487]
0

Request the reported Plant response rating, Sedge, Umbrella associated with O=C1NCC(c2cc(C(F)(F)F)cc(C(F)(F)F)c2)C1C(=O)Nc1cccc(F)c1F (centres unmarked) [Compound 588]
0

Request the reported Plant response rating, Sedge, Umbrella associated with CN1CC(c2ccc(F)c(C(F)(F)F)c2)C(C(=O)Nc2ccccc2S(C)(=O)=O)C1=O (centres unmarked) [Compound 612]
85

###

# Tested on: nutsedge, yellow (yellow nutsedge, Cyperus esculentus)
# Assay comment: Test C preemergence
# Type: in vivo
# Condition set: 62 g ai/ha, scale 0 to 100, 0 no effect, 100 complete control
# From the text: […]
Attribute measured: Plant response rating, Nutsedge, Yellow
Just the number.

Look over these answered cases.
| Compound | Plant response rating, Nutsedge, Yellow |
| --- | --- |
| CN1CC(c2cccc(OC(F)F)c2)C(C(=O)Nc2ccccc2S(C)(=O)=O)C1=O (stereo not shown) | 0 |
| CN1CC(c2cc(F)cc(F)c2)C(C(=O)Nc2cccc(F)c2F)C1=O (stereo not shown) | 0 |
| Cc1ccc(C2CN(C)C(=O)C2C(=O)Nc2ccccc2C(F)(F)F)cc1 (stereo not shown) | 0 |

Now for another entry.
Request the reported Plant response rating, Nutsedge, Yellow associated with CN1CC(c2ccc(C(F)(F)F)c(F)c2)C(C(=O)Nc2ccccc2F)C1=O (stereo not shown)
0

###

# Test system: pigweed (Amaranthus retroflexus)
# Assay comment: Test C preemergence
# Assay type: in vivo
# Condition set: 250 g ai/ha, scale 0 to 100, 0 no effect, 100 complete control
Attribute measured: Plant response rating, Pigweed
Just the number.

Look over these answered cases.
| Compound | Plant response rating, Pigweed |
| --- | --- |
| CC(C)Oc1cccc(C2CN(C)C(=O)C2C(=O)Nc2ccccc2S(C)(=O)=O)c1 (centres unmarked) | 85 |
| CN1CC(c2ccc(C(F)(F)F)c(F)c2)C(C(=O)Nc2cccc(F)c2F)C1=O (centres unmarked) | 95 |
| CN1CC(c2ccc(C(F)(F)F)c(F)c2)C(C(=O)Nc2ccccc2F)C1=O (centres unmarked) | 95 |
| CN1CC(c2cccc(OC(F)F)c2)C(C(=O)Nc2ccc(F)cc2F)C1=O (centres unmarked) | 75 |

Now for another entry.
Request the reported Plant response rating, Pigweed associated with Cc1ccc(C2CN(C)C(=O)C2C(=O)Nc2ccccc2F)cc1F (centres unmarked)
55

###

Recorded Plant response rating, Galium values for a group of molecules are listed next.
# System: Galium (catchweed bedstraw, Galium aparine)
# Assay comment: Test A postemergence
# Assay type: in vivo
# Condition set: 125 g ai/ha, postemergence; visual rating after approx. 10 d, 0 to 100 scale (0 no effect, 100 complete control)
Just the number.

Look over these answered cases.
| Molecule | Plant response rating, Galium |
| --- | --- |
| O=C(Nc1cccc(F)c1F)C1C(=O)N(C2C=CCCC2)CC1c1cccc(C(F)(F)F)c1 (stereo not shown) | 0 |
| CC(C)Oc1cccc(C2CN(C)C(=O)C2C(=O)Nc2ccccc2S(C)(=O)=O)c1 (stereo not shown) | 40 |

Request the reported Plant response rating, Galium associated with O=C1NCC(c2ccsc2Br)C1C(=O)Nc1cccc(F)c1F (stereo not shown)
0

Request the reported Plant response rating, Galium associated with CN1CC(c2cc(F)cc(F)c2)C(C(=O)Nc2cccc3c2CCC3)C1=O (stereo not shown)
0

###

# Tested on: barnyardgrass (Echinochloa crus-galli)
# Assay comment: Test G Post-Emergence Protocol
# Type: in vivo
# Condition set: Echinochloa crus-galli, post-emergence, 312 h, 250 g ai/ha, evaluated after 13 days, read-out: damage to plant, Barnyardgrass (100=total damage to plant; 0=no damage to plant)
Attribute measured: pest or weed control at 250 g/ha (%)
Use % as the unit, but write only the number.

Look over these answered cases.
| Compound | pest or weed control at 250 g/ha, % |
| --- | --- |
| Cc1c(Cl)ncnc1NC(=O)[C@@H]1C(=O)N(C)C[C@H]1c1ccc(C(F)(F)F)cc1 (racemic) | 10 |
| CCc1nccc(NC(=O)[C@@H]2C(=O)N(C)C[C@H]2c2ccc(C(F)(F)F)cc2)c1Cl (racemic) | 10 |
| CN1C[C@H](c2ccc(C(F)F)cc2)[C@@H](C(=O)Nc2ccccc2F)C1=O (racemic) | 20 |
| CSc1nc(NC(=O)[C@@H]2C(=O)N(C)C[C@H]2c2ccc(C(F)(F)F)cc2)n[nH]1 (racemic) | 0 |

Request the reported pest or weed control at 250 g/ha associated with CN1C[C@@H](c2ccc(C(F)(F)F)cc2)[C@H](C(=O)Nc2nnc(C(F)(F)F)[nH]2)C1=O (racemic)
0

Request the reported pest or weed control at 250 g/ha associated with COc1cc([C@@H]2CN(C)C(=O)[C@H]2C(=O)Nc2cccc(F)c2F)ccc1Cl (racemic)
60

Request the reported pest or weed control at 250 g/ha associated with COC(=O)c1nccc(NC(=O)[C@@H]2C(=O)N(C)C[C@H]2c2ccc(C(F)(F)F)cc2)n1 (racemic)
0
